# System: Odoribacter splanchnicus
# protocolText: growth AUC relative to DMSO control (median of replicates) (fraction); higher = more growth (less inhibition), active = hit call of the paper
# runParameters: 20 µM; 24 h
Assign growth AUC to each entry below.
Respond using a number only.

IN: What value of growth AUC on Odoribacter splanchnicus does COP1(=S)OCc2ccccc2O1 (configuration not stated) have?
OUT: 1.04

IN: What value of growth AUC on Odoribacter splanchnicus does CCOC(=O)CCN(SN(C)C(=O)Oc1cccc2c1OC(C)(C)C2)C(C)C have?
OUT: 1.02

IN: What value of growth AUC on Odoribacter splanchnicus does N#Cc1c(Cl)cccc1Cl have?
OUT: 1.01

IN: What value of growth AUC on Odoribacter splanchnicus does COc1ncc(F)c2nc(S(=O)(=O)Nc3c(F)cccc3F)nn12 have?
OUT: 0.992

IN: What value of growth AUC on Odoribacter splanchnicus does O=S1(=O)OCC2C(CO1)C1(Cl)C(Cl)=C(Cl)C2(Cl)C1(Cl)Cl (configuration not stated) have?
OUT: 1.02

IN: What value of growth AUC on Odoribacter splanchnicus does Nc1ccncc1 have?
OUT: 0.974

IN: What value of growth AUC on Odoribacter splanchnicus does CCNc1nc(NC(C)C)[nH]c(=O)n1 have?
OUT: 0.994

IN: What value of growth AUC on Odoribacter splanchnicus does Oc1ccc(-c2ccccc2)cc1 have?
OUT: 1.09

IN: What value of growth AUC on Odoribacter splanchnicus does CCCCOC(=O)[C@@H](C)Oc1ccc(Oc2ccc(C#N)cc2F)cc1 have?
OUT: 1

IN: What value of growth AUC on Odoribacter splanchnicus does COP(=S)(OC)Oc1ccc(SC)c(C)c1 have?
OUT: 1

IN: What value of growth AUC on Odoribacter splanchnicus does COCCOC(=O)C(C#N)(C(=O)c1ccccc1C(F)(F)F)c1ccc(C(C)(C)C)cc1 (configuration not stated) have?
OUT: 1

IN: What value of growth AUC on Odoribacter splanchnicus does NC(=S)c1c(Cl)cccc1Cl have?
OUT: 0.985
